These measurements were taken from ChEMBL document CHEMBL1629494.

Test system: PBMC
procedure-details: Cytotoxicity against human PBMC after 24 hrs by MTT assay
Format: cell-based
The following compounds are shown together with reported IC50 values.
Enter your answer as a number in µM; do not include the unit.

**Query** // IC50 lookup, key: "CC(=O)N[C@@H](Cc1ccccc1)C(=O)Oc1ccc(Cl)cc1C(=O)Nc1ccc(C(F)(F)F)cc1"
**Result** 12.2

**Query** // IC50 lookup, key: "CC(=O)N[C@@H](Cc1ccccc1)C(=O)Oc1ccc(Br)cc1C(=O)Nc1ccc(C(F)(F)F)cc1"
**Result** 48.7

Let's switch to this compound now.
**Query** // IC50 lookup, key: "CC(=O)N[C@@H](Cc1ccccc1)C(=O)Oc1ccc(Cl)cc1C(=O)Nc1ccc(Cl)c(Cl)c1"
**Result** 44
